Assay: CEETOX_H295R_OHPREG: CeeTox H295R High-throughput Steroidogenesis Assay for OH-Pregnenolone (OHPREG) (AID 2283434)
Details: actives raise or lower the signal
Procedure: CEETOX_H295R is a cell-based, multiplexed-readout assay that uses H295R, a human adrenal gland cell line, with measurements taken at 48 hours after chemical dosing in a 96-well plate.CEETOX_H295R_OHPREG is one of 23 assay component(s) measured or calculated from the CEETOX_H295R assay. […] This assay endpoint, CEETOX_H295R_OHPREG, was analyzed with bidirectional fitting relative to DMSO as the negative control and baseline of activity. […]
Calls of active or inactive are those of the source. Rule for the calls: active = hit-call score of the fitted dose curve at least 0.9, where 1 is the maximum; inactive = score below 0.9.
Respond using exactly one of the listed classes: active, inactive

Solved entries (count: 10):
NC(=O)Nc1ccc(Cl)cc1 : inactive
C=CC(C)(C)O : inactive
Cc1ccc2n[nH]nc2c1 : inactive
O=C(O)C[C@H](O)C[C@H](O)/C=C/c1c(C2CC2)nc2ccccc2c1-c1ccc(F)cc1 : active
O=c1cc(-c2ccccc2)oc2cc(O)cc(O)c12 : inactive
Nc1cc([N+](=O)[O-])ccc1Cl : inactive
Nc1ccc(F)c([N+](=O)[O-])c1 : inactive
Cc1cccc(C)c1C : inactive
COc1cc2ncnc(Nc3cccc(Cl)c3)c2cc1OC : inactive
c1ccc(CCCc2ccccn2)cc1 : inactive

Field: next compound
Q) # fetch the recorded call for CC1COc2ccccc2N1C(=O)C(Cl)Cl (stereo unspecified) here
A) active

---

Biological target: Hypoxia-inducible factor 1-alpha (Homo sapiens)
Test: ATG_HIF1a_CIS: Attagene CIS-FACTORIAL HepG2 Assay for human Hypoxia Inducible Factor 1 (HIF1A) (AID 2282951)
Conditions: HepG2 Attagene cis-factorial HIF1a reporter transcription; actives raise or lower the signal
Calls of active or inactive are those of the source. The calls were made as follows: active = hit-call score of the fitted dose curve at least 0.9, where 1 is the maximum; inactive = score below 0.9.
Respond using exactly one of the listed classes: active, inactive

CCCCCCOC(=O)CC : inactive
CC1(C)OC[C@@H]2O[C@@]3(C(=O)O)OC(C)(C)O[C@H]3[C@@H]2O1 : inactive
N#Cc1nc(Cl)c(Cl)c(Cl)c1Cl : active
CC(c1cc2ccccc2s1)N(O)C(N)=O (stereo not given) : inactive

Q) # fetch the recorded call for C=CC(=O)OCCOCCOCC here
A) inactive

Q) # fetch the recorded call for Cc1ccc2sc3cccc(C)c3c2c1 here
A) active

Q) # fetch the recorded call for N#Cc1ccccc1 here
A) inactive

Q) # fetch the recorded call for CCCCCCCCC=O here
A) inactive

Q) # fetch the recorded call for CCC(C)CCCC(C)(C)O (stereo not given) here
A) inactive

Q) # fetch the recorded call for C=C[Si](OCC)(OCC)OCC here
A) inactive

Q) # fetch the recorded call for CC(C)=CCC[C@](C)(O)[C@@H]1CC=C(C)CC1 here
A) inactive

Q) # fetch the recorded call for S=C(S)NCCNC(=S)S here
A) inactive

Q) # fetch the recorded call for COc1ccc(Nc2ccccc2)c(C)c1 here
A) inactive

Q) # fetch the recorded call for CCCCCOC(=O)CCC here
A) inactive

Q) # fetch the recorded call for NC(=O)Nc1ccc(Cl)cc1 here
A) inactive

---

Target: human Peroxisome Proliferator-activated Receptor alpha (PPARa), PPARA (gene 5465)
Assay: ATG_PPARa_TRANS: Attagene TRANS-FACTORIAL HepG2 Assay for human Peroxisome Proliferator-activated Receptor alpha (PPARa) (AID 2283001)
Inconclusive results are not listed. Activity calls are given as the source filed them. The calls were made as follows: active = hit-call score of the fitted dose curve at least 0.9, where 1 is the maximum; inconclusive = response in the unintended direction; inactive = score below 0.9.
Respond using exactly one of the listed classes: label 1 for active, label 0 for inactive

O=Cc1ccc(Cl)c([N+](=O)[O-])c1 : label 0

Q) # fetch the recorded call for CCCCCC(=O)OCCc1ccccc1 here
A) label 0

Q) # fetch the recorded call for COc1nc(C)nc(N)n1 here
A) label 0

---

Read-out: Tissue plasminogen activator (tPA), PLAT (gene 5327)
Experiment: BSK_BE3C_tPA: BioMAP Diversity Plus: BE3C Assay for Tissue plasminogen activator (tPA) Biomarker Activity (AID 2283041)
Conditions: primary human bronchial epithelial cells; actives raise or lower the signal
Activity calls are given as the source filed them. The calls were made as follows: active = hit-call score of the fitted dose curve at least 0.9, where 1 is the maximum; inactive = score below 0.9.
parameter-measured: AC50

A selection of reference data follows.
O=C=NC1CCC(CC2CCC(N=C=O)CC2)CC1 (stereo not given) : inactive
CC(=O)Nc1ccccc1O : inactive
N#Cc1ccc(CC(=NNC(=O)Nc2ccc(OC(F)(F)F)cc2)c2cccc(C(F)(F)F)c2)cc1 : inactive
C=C[Si](OCC)(OCC)OCC : inactive
BrC1CCC(Br)C(Br)CCC(Br)C(Br)CCC1Br (stereo not given) : inactive
Cc1ccc2n[nH]nc2c1 : inactive
O=C(O)c1cn(-c2ccc(F)cc2)c2cc(N3CCNCC3)c(F)cc2c1=O : inactive
COC(=O)c1ccc(C)cc1 : inactive

Short answer for CC(C)(COC(=O)c1ccccc1)COC(=O)c1ccccc1 : AC50 was inactive

Short answer for CCn1c2ccccc2c2cc(N)ccc21 : AC50 was 3.97 µM (active)

Short answer for CN(CCOc1ccc(CC2SC(=O)NC2=O)cc1)c1ccccn1 (stereo not given) : AC50 was inactive

Short answer for Cc1ccc(Nc2ccc(O)c3c2C(=O)c2ccccc2C3=O)cc1 : AC50 was inactive

Short answer for Nc1cc([N+](=O)[O-])ccc1Cl : AC50 was inactive

Short answer for C=C(C)C(=O)O[C@H]1C[C@@H]2CC[C@@]1(C)C2(C)C : AC50 was 20 µM (active)

Short answer for c1ccc2c(c1)c1cccc3ccc4cccc2c4c31 : AC50 was inactive

Short answer for O=C(O)C[C@H](O)C[C@H](O)/C=C/c1c(C2CC2)nc2ccccc2c1-c1ccc(F)cc1 : AC50 was 0.0843 µM (active)

Short answer for c1ccc2sc(SN(C3CCCCC3)C3CCCCC3)nc2c1 : AC50 was inactive

Short answer for CC1COc2ccccc2N1C(=O)C(Cl)Cl (stereo not given) : AC50 was 3.04 µM (active)

---

Read-out: Collagen III, COL3A1 (gene 1281)
Assay: BSK_MyoF_CollagenIII: BioMAP Diversity Plus: MyoF Assay for Collagen III Biomarker Activity (AID 2284239)
Conditions: primary human lung fibroblasts
Active and inactive are the calls of the source. The calls were made as follows: active = hit-call score of the fitted dose curve at least 0.9, where 1 is the maximum; inactive = score below 0.9.
parameter-measured: AC50

A selection of reference data follows.
CCCCCCCCC=O : inactive
O=P(c1ccccc1)(c1ccccc1)c1ccccc1 : inactive
Nc1cc([N+](=O)[O-])ccc1Cl : inactive
O=C1CCCCCCCCCCCCCCO1 : 20 µM (active)
CC(=O)/C=C/C1=C(C)CCCC1(C)C : inactive

Short answer for C=C[Si](OCC)(OCC)OCC : AC50 was inactive

Short answer for CCn1c2ccccc2c2cc(N)ccc21 : AC50 was inactive

Short answer for Cc1ccc(Nc2ccc(O)c3c2C(=O)c2ccccc2C3=O)cc1 : AC50 was inactive

Short answer for CCCCCCCCCC=O : AC50 was inactive

Short answer for O=C1OC2(c3cc(Br)c(O)c(Br)c3Oc3c2cc(Br)c(O)c3Br)c2c(Cl)c(Cl)c(Cl)c(Cl)c21 : AC50 was 4.52 µM (active)

Short answer for O=C(O)c1cn(C2CC2)c2cc(N3CCNCC3)c(F)cc2c1=O : AC50 was inactive

Short answer for CC(=O)O[C@]1(C(C)=O)CC[C@H]2[C@@H]3C[C@H](C)C4=CC(=O)CC[C@]4(C)[C@H]3CC[C@@]21C : AC50 was inactive

---

Test: ATG_M_32_TRANS: Attagene TRANS-FACTORIAL HepG2 Assay for M32 Transcription Factor (Internal Marker) (AID 2282984);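 note: transcript level of a background control reporter unit measured by RT-PCR and capillary electrophoresis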
Settings: HepG2 Attagene TRANS M32 internal marker reporter
Experimental: ATG_TRANS is a cell-based, multiplexed-readout assay that uses HepG2, a human liver cell line, with measurements taken at 24 hours after chemical dosing in a 24-well plate.ATG_M_32_TRANS is one of 30 assay component(s) measured or calculated from the ATG_TRANS assay. […] This assay endpoint, ATG_M_32_TRANS, was analyzed in the positive analysis fitting direction relative to DMSO as the negative control and baseline of activity. […]
Records with an inconclusive call do not appear. Calls of active or inactive are those of the source. The calls were made as follows: active = hit-call score of the fitted dose curve at least 0.9, where 1 is the maximum; inconclusive = response in the unintended direction; inactive = score below 0.9.
parameter-measured: outcome

A selection of reference data follows.
COc1ccc(NC(=O)CC(C)=O)cc1 : inactive
COc1nc(C)nc(N)n1 : inactive
NC(=O)NC1NC(=O)NC1=O (stereo unspecified) : inactive
CC(C)[C@H]1CC[C@@H](C)CC1=O : inactive
C=CC(=O)OCCn1c(=O)n(CCOC(=O)C=C)c(=O)n(CCOC(=O)C=C)c1=O : inactive
COC(=O)OC : inactive

Short answer for CC(C)c1ccc(C(C)C)cc1 : outcome was inactive

Short answer for CCC(=O)/C=C/C1C(C)=CCCC1(C)C (stereo unspecified) : outcome was inactive

Short answer for COc1ccc(Nc2ccccc2)c(C)c1 : outcome was inactive

Short answer for CCN(CC)c1ccc(C(=C2C=CC(=[N+](CC)CC)C=C2)c2ccc(S(=O)(=O)O)cc2S(=O)(=O)[O-])cc1 : outcome was inactive

Short answer for CCC(=O)OCc1ccccc1 : outcome was inactive

Short answer for CCCCOCCOCCSC#N : outcome was inactive

Short answer for O=C[C@@H](O)[C@H](O)[C@H](O)CO : outcome was inactive

Short answer for CCCc1c(OCCCOc2ccc(OCC(=O)O)cc2)ccc(C(C)=O)c1O : outcome was inactive

Short answer for NC(=O)Nc1ccc(Cl)cc1 : outcome was inactive

Short answer for CC(C)=CCO : outcome was inactive

Short answer for CN(C)C(=N)N=C(N)N : outcome was inactive

Short answer for O=S(=O)(O)c1ccc(O)c2ncccc12 : outcome was inactive

Short answer for CCc1ccc(C=O)cc1 : outcome was inactive

Short answer for CC1CCC(C(C)CS)CC1S (stereo unspecified) : outcome was inactive

Short answer for CN(C)CCOCCN(C)C : outcome was inactive

Short answer for O=c1cc(-c2ccccc2)oc2cc(O)cc(O)c12 : outcome was inactive
